biological target: hGLP-1R (Homo sapiens, UniProt P43220); experiment: cell-based or functional assay
Sequence (P43220 24-463): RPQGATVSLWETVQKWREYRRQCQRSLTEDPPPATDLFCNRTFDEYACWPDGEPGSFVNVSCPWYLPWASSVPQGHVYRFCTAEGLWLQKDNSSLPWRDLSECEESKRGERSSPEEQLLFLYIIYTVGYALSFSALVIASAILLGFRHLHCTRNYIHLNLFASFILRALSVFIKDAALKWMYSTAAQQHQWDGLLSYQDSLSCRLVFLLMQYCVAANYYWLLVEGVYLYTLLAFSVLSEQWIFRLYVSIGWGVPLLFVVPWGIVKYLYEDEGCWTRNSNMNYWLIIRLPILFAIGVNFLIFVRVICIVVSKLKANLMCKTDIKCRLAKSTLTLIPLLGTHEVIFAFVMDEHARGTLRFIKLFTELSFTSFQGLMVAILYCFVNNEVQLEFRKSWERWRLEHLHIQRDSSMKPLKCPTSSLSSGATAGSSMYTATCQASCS
Starred links: 1 amine or outer side, 2 acyl side, 3 side chain; linkers in the order of their positions; H or OH if unused. Non-standard residues stand in square brackets, D forms with d. Groups on a side chain read outwards from the residue. No end group written: not given here. *: point of attachment. C20 diacid = O=C(O)CCCCCCCCCCCCCCCCCCC(=O)*; γGlu = O=C(O)[C@H](CCC(=O)[*:2])N[*:1]; αMeL = CC(C)C[C@](C)(N)C(=O)O; Orn = NCCC[C@H](N)C(=O)O; AEEA = NCCOCCOCC(=O)O; Aib = CC(C)(N)C(=O)O
reported-property: log10(cAMP Rel EC50 (1% HSA)) (log10 of the value in nM)
Answers are given as log10 of cAMP Rel EC50 (1% HSA) in nM.

## Input Report log10(cAMP Rel EC50 (1% HSA)) for YXQGTFTSDXSKXLDKKAQXAFIEYLIEXGPSSGAPPPSGSE (Aib, 4Pal, αMeL; lipidated Lys; C-terminal amide; synthetic construct; SITE 2: note = 2-Aminoisobutyric Acid; SITE 10: note = 3-(4-Pyridyl)-L-alanine; SITE 13: note = alpha-methyl-leucine; SITE 17: note = Lysine is chemically modified through conjugation of the epsilon-amino group of the Lysine side chain with (gamma-Glu)2-CO-(CH2)16-CO2H; SITE 20:) [Example 904] please.
## Output 2.30

## Input Data request, read-out log10(cAMP Rel EC50 (1% HSA)), for YXQGTFTSDXSKXLDKKAQXAFIEYLIEXGPSSGAPPPSGS (non-natural residues; (γGlu)2-C18 diacid on Lys; C-terminal amide; synthetic construct; SITE 2: note = 2-Aminoisobutyric Acid; SITE 10: note = 3-(4-Pyridyl)-L-alanine; SITE 13: note = alpha-methyl-leucine; SITE 17: note = Lysine is chemically modified through conjugation of the epsilon-amino group of the Lysine side chain with (gamma-Glu)2-CO-(CH2)16-CO2H; SITE 20:) [Example 907]
## Output 2.09

## Input # query: log10(cAMP Rel EC50 (1% HSA)) of entry YXQGTFTSDXSQXLDKKAQXAFIEYLIEXGPSSGAPPPSGSEE (acylated Lys γGlu-(e)2-C18 diacid; non-natural residues; C-terminal amide; synthetic construct; SITE 2: note = 2-Aminoisobutyric Acid; SITE 10: note = 3-(4-Pyridyl)-L-alanine; SITE 13: note = alpha-methyl-leucine; SITE 17: note = Lysine is chemically modified through conjugation of the epsilon-amino group of the Lysine side chain with (gamma-Glu)-(D-Glutamic acid)2-CO-(CH2)) [Example 930]
## Output 2.92

## Input Can you look up the measured log10(cAMP Rel EC50 (1% HSA)) of YXQGTXTSDXSILLDXKAQXAFIEXLEEGGPSSGAPPPSGTGE (synthetic construct; SITE 2: note = 2-Aminoisobutyric Acid; SITE 6: note = alpha-methyl-2-fluoro-L-phenylalanine; SITE 10: note = 3-(4-Pyridyl)-L-alanine; SITE 16: note = L-ornithine; SITE 17: note = Lysine is chemically modified through conjugation of the epsilon-amino group of the Lysine side chai) [Example 665] for me?
## Output 1.52

## Input Reported log10(cAMP Rel EC50 (1% HSA)) for YXQGTXTSDXXIXLDXKAQXXFIEXLQEGGPSSGEPPPSGTE (synthetic construct; SITE 2: note = 2-Aminoisobutyric Acid; SITE 6: note = alpha-methyl-2-fluoro-L-phenylalanine; SITE 10: note = 3-(4-Pyridyl)-L-alanine; SITE 11: note = alpha-methyl-L-serine; SITE 13: note = alpha-methyl-leucine; SITE 16: note = L-ornithine; SITE 17: note = Lysine is chemically mo) [Example 504] : what is it?
## Output 1.22

## Input Fill in the blank: the reported log10(cAMP Rel EC50 (1% HSA)) of YXQGTXTSDXXIXLDXKAQXNFIEXLQEGGPSSGEPPPEGTGE (synthetic construct; SITE 2: note = 2-Aminoisobutyric Acid; SITE 6: note = alpha-methyl-2-fluoro-L-phenylalanine; SITE 10: note = 3-(4-Pyridyl)-L-alanine; SITE 11: note = alpha-methyl-L-serine; SITE 13: note = alpha-methyl-leucine; SITE 16: note = L-ornithine; SITE 17: note = Lysine is chemically mo) [Example 527] is ____.
## Output 1.43

## Input // returns reported log10(cAMP Rel EC50 (1% HSA)) for input Y[Aib]QGTFTSDYSI[αMeL]LDKQAAK([AEEA-AEEA-γGlu-C20 diacid])AFVEWLLA[Aib]GPSSGEPPPSEG-NH2 [Example 317]
## Output 2.37

## Input Request the reported log10(cAMP Rel EC50 (1% HSA)) associated with YXQGTFTSDXSQXLDKKAQXAFIEXLLEGGPSSGAPPPSGS (non-natural residues; lipidated Lys; C-terminal amide; synthetic construct; SITE 2: note = 2-Aminoisobutyric Acid; SITE 10: note = 3-(4-Pyridyl)-L-alanine; SITE 13: note = alpha-methyl-leucine; SITE 17: note = Lysine is chemically modified through conjugation of the epsilon-amino group of the Lysine side chain with (2-[2-(2-Amino-ethoxy)-ethoxy]-acetyl)) [Example 910]
## Output 2.38

## Input Please give the measured log10(cAMP Rel EC50 (1% HSA)) for this binder: YXQGTFTSDXSQXLDXKAQXQFIQXLIEXGPSSGEPPPSGGGE (non-natural residues; lysine acylated with C18 diacid; C-terminal amide; synthetic construct; SITE 2: note = 2-Aminoisobutyric Acid; SITE 10: note = 3-(4-Pyridyl)-L-alanine; SITE 13: note = alpha-methyl-leucine; SITE 16: note = L-ornithine; SITE 17: note = Lysine is chemically modified through conjugation of the epsilon-amino group of the Lysine side chain with D-Glutami) [Example 1129]
## Output 1.75

## Input Value lookup for log10(cAMP Rel EC50 (1% HSA)); key = YXQGTXTSDXXIXLDXKAAXEFIEXLVEGGPSSGAPPPSGS (synthetic construct; SITE 2: note = 2-Aminoisobutyric Acid; SITE 6: note = alpha-methyl-2-fluoro-L-phenylalanine; SITE 10: note = 3-(4-Pyridyl)-L-alanine; SITE 11: note = alpha-methyl-L-serine; SITE 13: note = alpha-methyl-leucine; SITE 16: note = L-ornithine; SITE 17: note = Lysine is chemically mo) [Example 693]
## Output 1.26

## Input Requested field: log10(cAMP Rel EC50 (1% HSA)). Item: Y[Aib]QGTFTSDYSI[αMeL]LDKIAAK([AEEA-AEEA-γGlu-C20 diacid])[Orn]FVQYLIAGGPSSGEPPPSEG-NH2 [Example 308]
## Output 2.68
